MEASUREMENT_TARGET: Peroxisome proliferator-activated receptor gamma (Homo sapiens) (UniProt P37231)
Sequence (P37231 whole entry, looked up): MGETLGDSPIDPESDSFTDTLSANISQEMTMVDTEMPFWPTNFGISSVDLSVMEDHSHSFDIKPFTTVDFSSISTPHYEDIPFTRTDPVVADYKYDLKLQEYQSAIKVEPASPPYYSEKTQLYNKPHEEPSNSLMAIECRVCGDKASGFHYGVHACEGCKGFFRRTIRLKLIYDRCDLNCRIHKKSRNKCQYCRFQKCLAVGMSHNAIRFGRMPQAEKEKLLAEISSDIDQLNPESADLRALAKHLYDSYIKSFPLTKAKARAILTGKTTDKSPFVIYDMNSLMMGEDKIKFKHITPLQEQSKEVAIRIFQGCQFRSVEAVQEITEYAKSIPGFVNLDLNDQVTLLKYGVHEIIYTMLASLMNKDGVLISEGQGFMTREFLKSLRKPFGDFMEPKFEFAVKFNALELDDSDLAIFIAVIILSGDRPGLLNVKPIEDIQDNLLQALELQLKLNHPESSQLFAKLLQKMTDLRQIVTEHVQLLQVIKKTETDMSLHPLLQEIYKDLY
METHOD: OT_PPARg_PPARgSRC1_0480: Odyssey Thera (OT) 8-hour Protein-Complementation Assay for Peroxisome Proliferator-activated Receptor Gamma / SRC-1 Co-activator (AID 2283387);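 further: nuclear to cytoplasmic split Venus YFP fluorescence ratio reporting PPARg SRC-1 interaction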
Inconclusive results are not listed. Activity calls are given as the source filed them. How the source made its calls: active means hit-call score of the fitted dose curve at least 0.9, where 1 is the maximum; inconclusive means response in the unintended direction; inactive means score below 0.9.
OBSERVATION_TYPE: outcome

Previously resolved entries follow.
> print(dat)
                                   compound                        measurement.target  value.measured
1                  Cc1ccc(C)c(S(=O)(=O)O)c1  Peroxisome proliferator-activated receptor gamma (Homo sapiens) (UniProt P37231)        inactive
2  CCCCCCCCCC=CCC1CC(=O)OC1=O (stereo not drawn)  Peroxisome proliferator-activated receptor gamma (Homo sapiens) (UniProt P37231)        inactive
3                            NCc1cccc(CN)c1  Peroxisome proliferator-activated receptor gamma (Homo sapiens) (UniProt P37231)        inactive
4              CCCCc1ccc2ccccc2c1S(=O)(=O)O  Peroxisome proliferator-activated receptor gamma (Homo sapiens) (UniProt P37231)        inactive
5                              O=C(O)C(=O)O  Peroxisome proliferator-activated receptor gamma (Homo sapiens) (UniProt P37231)        inactive
6                        O=S(=O)(O)c1ccccc1  Peroxisome proliferator-activated receptor gamma (Homo sapiens) (UniProt P37231)        inactive
7                    O=C(O)c1cccc(C(=O)O)n1  Peroxisome proliferator-activated receptor gamma (Homo sapiens) (UniProt P37231)        inactive
8  C[C@]12CC[C@@H]3c4ccc(O)cc4CC[C@H]3[C@@H]1C[C@@H](O)[C@@H]2O  Peroxisome proliferator-activated receptor gamma (Homo sapiens) (UniProt P37231)        inactive

Query string: Given C=CC(C)(CCC=C(C)C)OC(C)=O (stereo not drawn) , state its recorded outcome.
Result string: inactive

Query string: Here is the next compound: `N=C(N)c1ccc(OCCCCCOc2ccc(C(=N)N)cc2)cc1`
Result string: inactive
